- System: PA-1
- EXPERIMENT_SUMMARY: Primary qHTS to identify gynecologic anti-cancer compounds using libraries of approved drugs and bioactive compounds (AID 1345084); also: nearly all actives have a fitted effect of over 55% in size; also: potency is read from the fitted curve at half-maximal effect
- SETTINGS: Gynecologic cancer cell panel viability, ATPlite luminescence, 48 h; series mostly up to 57.5 µM
Results filed as inconclusive are left out. The source made the active and inactive calls. Calls follow the shape of the dose curve; as a rule, active = well fitted cell-killing curve with a large enough effect; inconclusive = small, poorly fitted or top-dose-only effect, or effect the other way; inactive = flat fitted curve, though single readings scatter.
PARAMETER_MEASURED: Potency

// below: answered molecules
> print(dat)
                                   molecule  measured.target  parameter.measured         data.value
1  O=C(c1ccc(C(=O)N2CCC(N3CCCC3)CC2)c(Nc2ccccc2)c1)N1CCC(N2CCCC2)CC1             PA-1             Potency           inactive
2  CC1(COc2ccc3c(c2)ncn3-c2ccc3cccc(N4CCC(N)CC4)c3n2)COC1             PA-1             Potency   8.91 µM (active)
3  O=C1NC(=O)C(c2cnc3ccccn23)=C1c1cn2c3c(cccc13)CN(C(=O)N1CCOCC1)CC2             PA-1             Potency           inactive
4  COc1ccc(-c2ccc3ncc4c(c3c2)n(-c2ccc(N3CCNCC3)c(C(F)(F)F)c2)c(=O)n4C)cn1             PA-1             Potency  0.316 µM (active)
5            N#Cc1ccc(Oc2ccc3c(c2)COB3O)cc1             PA-1             Potency           inactive
6  CNC(=O)c1ccc2c(C(=Nc3cccc(CN(C)C)c3)c3ccccc3)c(O)[nH]c2c1             PA-1             Potency           inactive

What value of Potency has been recorded for this entry: CC1=C(C(=O)Nc2cc3cn[nH]c3cc2F)C(c2ccc(C(F)(F)F)cc2)CC(=O)N1 (stereo unspecified)
inactive

Item COc1ccnc(CS(=O)c2nc3ccc(OC(F)F)cc3[nH]2)c1OC (stereo unspecified) has what recorded Potency?
inactive

Tell me the measured Potency of `CC(C)CNc1ccnc(NCc2csc(-c3ccccc3)n2)n1` , please.
12.6 µM (active)

What value of measured Potency is listed for CN1C(=O)C(Cc2c[nH]c3ccccc23)NC1=S (stereo unspecified) ?
inactive
